# System: EBOV-Mak
# run.description: microbe, parasite or virus in culture
# Type: cell-based
# condition.label: Zaire ebolavirus, Huh-7, read-out: IC50, inhibition of Ebola infectivity
reported.property: IC50

Consider the compound NC(=O)c1cn([C@@H]2O[C@H](CO)[C@@H](O)[C@H]2O)c2ncnc(N)c12 [sangivamycin] and give its recorded IC50. ~100 nM

Value source: patent US11617753B2
